- Assay target: Eukaryotic translation initiation factor 4E (Mus musculus, UniProt P63073)
- Sequence (P63073 whole entry): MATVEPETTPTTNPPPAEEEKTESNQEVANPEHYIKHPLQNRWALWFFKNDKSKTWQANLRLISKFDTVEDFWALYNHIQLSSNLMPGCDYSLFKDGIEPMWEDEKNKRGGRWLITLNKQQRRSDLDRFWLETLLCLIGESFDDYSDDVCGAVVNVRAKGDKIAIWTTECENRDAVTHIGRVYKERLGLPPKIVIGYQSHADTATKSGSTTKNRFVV
- Measurement description: eIF4E–eIF4G protein interaction inhibitors, dose response, biochemical, TR-FRET (AID 855);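 note: potency for disrupting eIF4E binding to eIF4GI seen as loss of FRET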
- Assay type: functional
The source made the active and inactive calls.
Entries and their IC50

Example entries begin here.
[[record]]
molecule = "Nc1ccccc1-c1nnc(SCc2ccccc2F)nc1O"
result = "> 64 µM (inactive)"

[[record]]
molecule = "CCNc1nc(NC(C)C)nc(Oc2ccc(=O)n(C)n2)n1"
result = "50 µM (inactive)"

[[record]]
molecule = "CCOC(=O)c1ccc(/N=c2\\ssnc2Cl)cc1"
result = "50 µM (inactive)"

[[record]]
molecule = "O=C(CN1C(=O)S/C(=C\\c2ccc(Cl)cc2)C1=O)NNC(=O)c1ccccc1O"
result = "> 64 µM (inactive)"

[[record]]
molecule = "Cc1cc(Cl)ccc1/N=c1\\ssnc1Cl"
result = "> 64 µM (inactive)"


Quote IC50 reported for COc1ccc(OC)c(Nc2ncnc3sc(-c4ccccc4)cc23)c1 please. > 64 µM (inactive)

Return IC50 (reported value) for this molecule: CC(C)C(NC(=O)C12CC3CC(CC(C3)C1)C2)C(=O)NC1=NCCS1 (configuration not stated) > 64 µM (inactive)

###

Here the recorded EC50 is given for each entry.
- Assay target: Voltage-dependent T-type calcium channel subunit alpha-1H (Homo sapiens, UniProt O95180);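 note: channel activity triggered by adding a high calcium stimulation buffer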
- Sequence (O95180 whole entry): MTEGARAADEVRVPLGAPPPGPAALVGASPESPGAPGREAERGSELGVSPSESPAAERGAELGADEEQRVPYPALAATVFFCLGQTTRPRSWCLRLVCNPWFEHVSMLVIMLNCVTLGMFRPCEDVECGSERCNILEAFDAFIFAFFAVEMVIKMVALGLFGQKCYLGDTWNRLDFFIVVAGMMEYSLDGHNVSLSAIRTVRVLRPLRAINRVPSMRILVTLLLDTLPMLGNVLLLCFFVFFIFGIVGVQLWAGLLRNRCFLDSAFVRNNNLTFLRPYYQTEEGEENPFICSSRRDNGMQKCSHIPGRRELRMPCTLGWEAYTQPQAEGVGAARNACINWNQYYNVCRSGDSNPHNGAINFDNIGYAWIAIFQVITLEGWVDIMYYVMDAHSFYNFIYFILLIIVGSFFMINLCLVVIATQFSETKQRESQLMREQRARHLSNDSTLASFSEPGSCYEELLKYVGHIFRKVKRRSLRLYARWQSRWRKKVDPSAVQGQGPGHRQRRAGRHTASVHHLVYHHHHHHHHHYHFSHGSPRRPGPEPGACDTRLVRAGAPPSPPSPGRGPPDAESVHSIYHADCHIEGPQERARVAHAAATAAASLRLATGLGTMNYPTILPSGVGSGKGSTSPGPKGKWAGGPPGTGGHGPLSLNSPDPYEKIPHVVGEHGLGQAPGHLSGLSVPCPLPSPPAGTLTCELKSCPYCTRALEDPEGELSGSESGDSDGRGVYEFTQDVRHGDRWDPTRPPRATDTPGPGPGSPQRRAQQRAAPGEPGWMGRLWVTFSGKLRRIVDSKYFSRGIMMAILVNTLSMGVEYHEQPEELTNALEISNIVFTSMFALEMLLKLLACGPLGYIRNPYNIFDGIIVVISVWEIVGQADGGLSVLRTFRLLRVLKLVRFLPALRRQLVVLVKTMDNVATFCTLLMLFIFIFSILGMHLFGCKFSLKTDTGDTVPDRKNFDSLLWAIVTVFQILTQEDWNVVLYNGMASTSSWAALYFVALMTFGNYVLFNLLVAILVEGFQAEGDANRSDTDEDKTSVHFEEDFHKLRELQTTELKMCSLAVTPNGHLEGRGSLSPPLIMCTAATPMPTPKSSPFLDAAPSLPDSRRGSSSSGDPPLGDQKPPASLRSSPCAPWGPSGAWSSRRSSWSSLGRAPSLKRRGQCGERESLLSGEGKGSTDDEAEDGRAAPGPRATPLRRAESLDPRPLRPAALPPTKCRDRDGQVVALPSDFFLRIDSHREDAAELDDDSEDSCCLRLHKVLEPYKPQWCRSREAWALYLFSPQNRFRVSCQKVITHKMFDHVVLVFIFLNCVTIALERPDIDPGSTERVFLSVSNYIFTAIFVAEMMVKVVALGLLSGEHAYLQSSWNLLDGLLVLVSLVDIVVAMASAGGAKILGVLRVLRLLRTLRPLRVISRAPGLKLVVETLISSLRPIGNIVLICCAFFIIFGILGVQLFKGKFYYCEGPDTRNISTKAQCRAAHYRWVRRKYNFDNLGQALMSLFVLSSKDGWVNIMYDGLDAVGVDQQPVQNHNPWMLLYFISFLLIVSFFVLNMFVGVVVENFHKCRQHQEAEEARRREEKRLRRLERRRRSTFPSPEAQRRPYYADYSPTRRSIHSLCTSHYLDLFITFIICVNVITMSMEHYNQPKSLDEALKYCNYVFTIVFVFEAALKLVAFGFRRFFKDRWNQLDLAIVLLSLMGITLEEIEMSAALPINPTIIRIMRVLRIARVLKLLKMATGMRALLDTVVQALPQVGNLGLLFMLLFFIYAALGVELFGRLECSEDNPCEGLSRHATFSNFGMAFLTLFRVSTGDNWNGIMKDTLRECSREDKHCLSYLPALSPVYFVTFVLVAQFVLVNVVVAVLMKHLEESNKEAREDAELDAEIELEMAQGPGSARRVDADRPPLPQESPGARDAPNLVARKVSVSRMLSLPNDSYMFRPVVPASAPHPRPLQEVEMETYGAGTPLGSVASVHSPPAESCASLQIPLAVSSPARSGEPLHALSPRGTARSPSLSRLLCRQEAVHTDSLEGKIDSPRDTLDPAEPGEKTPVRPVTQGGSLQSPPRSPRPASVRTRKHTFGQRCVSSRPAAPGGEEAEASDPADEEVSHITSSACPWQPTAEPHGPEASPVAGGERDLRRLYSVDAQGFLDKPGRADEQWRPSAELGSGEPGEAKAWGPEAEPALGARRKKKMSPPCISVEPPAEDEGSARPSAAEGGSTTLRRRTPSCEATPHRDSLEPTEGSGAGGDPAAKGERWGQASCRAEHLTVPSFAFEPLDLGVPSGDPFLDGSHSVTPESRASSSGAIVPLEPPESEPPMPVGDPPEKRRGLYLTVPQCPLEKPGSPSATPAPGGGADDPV
- Format: functional
Activity calls are given as the source filed them.

[[record]]
molecule = "Cc1ccc(C(=O)NCc2ccco2)cc1S(=O)(=O)Nc1cccc(Cl)c1"
result = "5.11 µM (active)"


Determine its reported EC50: Cc1ccc(-c2nnc(N3CCN(C(=O)COc4ccccc4)CC3)c3ccccc23)cc1 4.54 µM (active)

For the molecule Cc1cc(C)cc(NC(=O)CSc2nnc(Cc3cccn3C)n2-c2ccc(F)cc2)c1 , give its reported EC50. 2.01 µM (active)

###

- Assay target: Corticotropin-releasing factor receptor 2/Corticotropin-releasing factor-binding protein (Homo sapiens, UniProt P24387+Q13324)
- Sequence (Q13324 whole entry): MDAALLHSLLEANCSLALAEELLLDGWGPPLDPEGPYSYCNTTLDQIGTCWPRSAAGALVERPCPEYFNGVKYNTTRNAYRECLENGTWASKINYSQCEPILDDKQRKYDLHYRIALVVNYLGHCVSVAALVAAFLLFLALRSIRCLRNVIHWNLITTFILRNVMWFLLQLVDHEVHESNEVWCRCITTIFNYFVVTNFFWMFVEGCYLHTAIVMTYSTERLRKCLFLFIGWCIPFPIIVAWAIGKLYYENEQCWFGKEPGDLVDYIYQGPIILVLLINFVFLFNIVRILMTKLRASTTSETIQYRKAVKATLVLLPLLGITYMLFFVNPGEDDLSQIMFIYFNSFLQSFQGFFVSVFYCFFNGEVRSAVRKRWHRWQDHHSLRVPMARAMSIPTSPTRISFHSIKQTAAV
- Sequence (P24387 whole entry): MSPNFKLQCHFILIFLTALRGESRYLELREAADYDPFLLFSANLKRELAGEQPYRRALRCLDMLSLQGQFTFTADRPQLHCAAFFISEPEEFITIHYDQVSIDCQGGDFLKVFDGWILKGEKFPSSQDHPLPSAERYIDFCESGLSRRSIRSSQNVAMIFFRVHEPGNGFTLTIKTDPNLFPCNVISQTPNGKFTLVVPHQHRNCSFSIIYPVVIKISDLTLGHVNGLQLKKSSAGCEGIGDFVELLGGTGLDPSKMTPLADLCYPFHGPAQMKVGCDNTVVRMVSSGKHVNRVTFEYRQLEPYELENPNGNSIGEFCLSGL
- Measurement description: activators of CRF receptor 2 with binding protein – uHTS hits, confirmation (AID 602473)
- Assay type: functional
- Condition context: read-out: EC50_Mean
Active and inactive are the calls of the source.
Could you please pick one outcome from this set? Y = active, N = inactive

Example results:
[[record]]
molecule = "Cc1c(/C=N/NC(=O)C(NC(=O)c2ccc3c(c2)OCO3)C(C)C)c2ccccc2n1C (stereo not given)"
cat = "Y"

[[record]]
molecule = "Cc1ccc(S(=O)(=O)N2CCCCCC2)cc1[N+](=O)[O-]"
cat = "N"

[[record]]
molecule = "COc1ccc(OC)c(/C=c2\\sc3nc(-c4cccs4)nn3c2=O)c1"
cat = "Y"

[[record]]
molecule = "COc1cc(C)c(C)cc1S(=O)(=O)N1CCCc2ccccc21"
cat = "Y"


Next up:
Please state the recorded outcome for this molecule: CCOC(=O)/C=c1/s/c(=C/c2ccc3cc(OC)ccc3c2)c(=O)n1CC(=O)NCc1ccc2c(c1)OCO2 Y
